The reported measurements were obtained from patent US20240116985A1.

# experimental_protocol: CHI Log D procedure
# Assay type: physicochemical
# run_conditions: pH 7.4
recorded_metric: CHI Log D
No unit in the answer, only the number.

molecule	CHI Log D
CC(=O)N[C@@H](Cc1ccccc1)C(=O)N[C@@H](CC(=O)O)C(=O)N[C@@H](C)C(=O)N[C@]1(C)CCCCCCC=CCOC(=O)N2CC[C@@](C(=O)N[C@@H](Cc3c(F)c(F)c(F)c(F)c3F)C(=O)N[C@@H](Cc3c[nH]c4ccccc34)C(=O)N[C@@H](CCC(N)=O)C(N)=O)(C2)NC(=O)[C@H](C(C)C)NC(=O)[C@H](Cc2ccccc2)NC(=O)[C@H](C)NC(=O)[C@H](C)NC(=O)[C@H](CC(=O)O)NC(=O)[C@H](CC(=O)O)NC1=O [I-225]	1.497
CC(=O)N1CCC[C@]12CC=CCCCC1(CCCC=CCCCOC(=O)N3CC[C@@](C(=O)N[C@@H](Cc4ccsc4)C(=O)N[C@@H](Cc4csc5ccccc45)C(=O)N[C@@H](CO)C(N)=O)(C3)NC(=O)[C@H](CC(N)=O)NC(=O)[C@H](Cc3ccccc3)NC(=O)[C@H](C)NC(=O)[C@H](C)NC(=O)[C@H](CN(CC(=O)O)CC(F)(F)F)NC(=O)[C@H](CC(=O)O)NC1=O)NC(=O)[C@H](CC(C)(C)C)NC(=O)[C@H](CC(=O)O)NC2=O (stereo partly drawn) [I-941]	2.011

Next, consider the following molecule.
Returns the measured CHI Log D for the input molecule. Input: CC[C@H](C)[C@@H]1NC(=O)[C@H](CC(=O)O)NC(=O)[C@]2(CC=CCCCC3(CCCC=CCCCCCC[C@@](C)(C(=O)N[C@@H](Cc4ccccc4)C(=O)N[C@@H](Cc4ccccc4)C(=O)N[C@@H](CCC(N)=O)C(N)=O)NC(=O)[C@H](CCC(N)=O)NC(=O)[C@H](Cc4csc5ccccc45)NC(=O)[C@H](C)NC(=O)[C@H](C)NC(=O)[C@H](CCC(=O)O)NC(=O)[C@H](CC(=O)O)NC3=O)NC1=O)CCCN2C(C)=O (stereo partly drawn) [I-586]
2.39
